- test.method.notes: p53 small molecule agonists, cell-based qHTS assay with human liver microsomes (AID 1963577);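 also: p53 response element beta-lactamase reporter cells with liver microsomes plus NADPH; % is scaled to controls: 0 for no effect and ±100 for the full control effect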
- measurement.context: HCT-116 p53RE-bla with human liver microsomes, ratio, 16 h; series mostly up to 66 µM
Results filed as inconclusive are left out. The source made the active and inactive calls. Calls follow the shape of the full dose curve.
observed.property: activation

Before answering, review these 8 worked examples.
[[record]]
compound = "CC1COc2c(N3CCN(C)CC3)c(F)cc3c(=O)c(C(=O)O)cn1c23 (configuration not stated)"
result = "inactive"

[[record]]
compound = "COc1cc(C(=O)NC2CCCNC2)cc(OC)c1OC (configuration not stated)"
result = "inactive"

[[record]]
compound = "C1=CCC(c2ccccc2)CC1 (configuration not stated)"
result = "inactive"

[[record]]
compound = "O=C(CN1CCN(Cc2ccc3c(c2)OCO3)CC1)N1c2ccccc2Sc2ccccc21"
result = "inactive"

[[record]]
compound = "CCOC(=O)C(O)c1ccccc1 (configuration not stated)"
result = "inactive"

[[record]]
compound = "O=C(Nc1ccc(Cl)c(Cl)c1)C1CC1"
result = "inactive"

[[record]]
compound = "CC(CC(=O)O)CC(C)(C)C (configuration not stated)"
result = "inactive"

[[record]]
compound = "C[C@@H]1CN(c2c(F)c(N)c3c(=O)c(C(=O)O)cn(C4CC4)c3c2F)C[C@H](C)N1"
result = "-0.339% [at 13.5 µM] (inactive)"


Measured activation of O=C(O)c1cccc(-c2noc(-c3ccccc3F)n2)c1 : inactive

For reference, reported activation for COC(=O)C1CC(=O)C(C(=O)OC)CC1=O (configuration not stated) stands at -0.316% [at 5.99 µM] (inactive)

Reported activation ( O=C(CCCl)NCc1ccccc1 ) = inactive

For this compound ( CC[N+]1(CC)CCC(=C(c2ccccc2)c2ccccc2)C1C (configuration not stated) ), measured activation is inactive

====

- test.method.notes: p53 small molecule agonists, cell-based qHTS assay (AID 1963582); also: % is scaled to controls: 0 for no effect and ±100 for the full control effect
- measurement.context: HCT-116 p53RE-bla reporter, beta-lactamase FRET ratio, 16 h; series mostly up to 66 µM
Results filed as inconclusive are left out. Active and inactive are the calls of the source. Calls follow the shape of the dose curve; as a rule, active = well fitted activation curve with a large enough effect in the signal ratio in the repeat runs (not every such curve was filed as active); inconclusive = weak or mixed curves; inactive = flat fitted curve, though single readings scatter; the % refers to the signal ratio.
observed.property: activation

[[record]]
compound = "Cc1cc(-n2nc3ccc(Cl)cc3n2)c(O)c(C(C)(C)C)c1"
result = "inactive"

[[record]]
compound = "CCCCCCCC[Si](OCC)(OCC)OCC"
result = "inactive"

[[record]]
compound = "c1ccc(SSc2ccccc2)cc1"
result = "inactive"

[[record]]
compound = "Cc1ccc(=O)n(-c2ccccc2)c1"
result = "inactive"


Now examine the next entry.
Per the records, this compound ( CCCCCCCC(=O)Oc1c(Br)cc(C#N)cc1Br ) has activation equal to inactive

====

- test.method.notes: cAMP Responsive Elements (CRE) small molecule agonists, cell-based qHTS assay (AID 1963590); also: % is scaled to controls: 0 for no effect and ±100 for the full control effect
- measurement.context: CRE-bla HEK293T, beta-lactamase FRET ratio, 3 h; series mostly up to 92.4 µM
- Description: U.S. Tox21 Program National Center for Advancing Translational Sciences [NCATS] Division of Preclinical Innovation [DPI] U.S. Environmental Protection Agency [EPA] National Institutes of Environmental Health Sciences [NIEHS] National Toxicology Program [NTP] U.S. Food and Drug Administration [FDA] […] The activation of the report gene under culture conditions can be detected by fluorescence intensity. […]
Records with an inconclusive call do not appear. Activity calls are given as the source filed them. The call rests on the fitted dose curve.
observed.property: activation

[[record]]
molecule = "OCCCCCCO"
observed_property = "activation"
result = "inactive"

[[record]]
molecule = "O=C(OOC(=O)c1ccccc1)c1ccccc1"
observed_property = "activation"
result = "inactive"

[[record]]
molecule = "COc1cc(C(C)C)ccc1C"
observed_property = "activation"
result = "-1.07% [at 19 µM] (inactive)"

[[record]]
molecule = "C1OCOCO1"
observed_property = "activation"
result = "inactive"

[[record]]
molecule = "Cc1c(Cn2ccnc2)c2ccccc2n1CCC(=O)O"
observed_property = "activation"
result = "inactive"

[[record]]
molecule = "CC(=O)CC(C)C"
observed_property = "activation"
result = "inactive"


Sure, the documented activation for CC(C)CC(C)CC(C)CC(C)COC(=O)c1ccccc1C(=O)OCC(C)CC(C)CC(C)CC(C)C (centres undefined) is inactive

Note to self: activation recorded for CCN(CCO)CCCC(C)Nc1ccnc2cc(Cl)ccc12 (centres undefined) was 0.273% [at 8.39 µM] (inactive)

Entry C[N+](C)(C)CCOC(=O)CCC(=O)OCC[N+](C)(C)C , activation reported as inactive

// activation lookup, molecule = CC(=O)Nc1ccc(S(=O)(=O)Nc2cc(C)on2)cc1 , result: inactive

Memo: Cc1c(Cl)cccc1[N+](=O)[O-] , reported activation: inactive

Form: molecule = CCc1nnc(NS(=O)(=O)c2ccc(N)cc2)s1 ; activation = inactive

====

- assay.system: KiSS-1 receptor (Homo sapiens) (UniProt Q969F8)
- Sequence (Q969F8 whole entry, looked up): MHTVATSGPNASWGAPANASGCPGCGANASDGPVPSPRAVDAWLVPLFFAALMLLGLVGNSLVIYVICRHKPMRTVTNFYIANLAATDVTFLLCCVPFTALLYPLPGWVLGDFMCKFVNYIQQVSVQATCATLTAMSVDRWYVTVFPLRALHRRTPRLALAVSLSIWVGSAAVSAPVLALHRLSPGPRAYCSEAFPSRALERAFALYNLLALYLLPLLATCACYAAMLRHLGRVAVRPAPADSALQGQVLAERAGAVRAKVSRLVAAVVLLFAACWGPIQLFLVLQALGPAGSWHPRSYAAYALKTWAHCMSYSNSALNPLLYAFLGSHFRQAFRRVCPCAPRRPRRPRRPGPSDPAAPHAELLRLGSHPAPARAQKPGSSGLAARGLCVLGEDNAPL
- test.method.notes: Human kisspeptin (KISS1R) small molecule agonists, calcium flux assay in KISS1R-HEK293 cells (AID 1920064); also: % is scaled to controls: 0 for no effect and ±100 for the full control effect
- measurement.context: KISS1R-HEK293, calcium flux fluorescence, agonist; series mostly up to 76.8 µM
Active and inactive are the calls of the source. The call rests on the fitted dose curve; in most records, active means well fitted activation curve with a large enough effect in the repeat runs; inconclusive means weak or mixed curves; inactive means flat fitted curve, though single readings scatter.
observed.property: activation

Record excerpt, results attached:
[[record]]
compound = "OC1OCCOC1O (configuration not stated)"
result = "inactive"

[[record]]
compound = "ON=C1CCCC1"
result = "inactive"

[[record]]
compound = "CC(C)(C)C(=O)OCOC(=O)[C@@H]1N2C(=O)[C@@H](NC(=O)[C@H](N)c3ccccc3)[C@H]2SC1(C)C"
result = "inactive"

[[record]]
compound = "Brc1c2ccccc2cc2ccccc12"
result = "inactive"

[[record]]
compound = "C=C(C)C(=O)OCC1CCCO1 (configuration not stated)"
result = "inactive"


Consider N[C@H](C(=O)O)[C@@H](O)c1ccc(O)c(O)c1 . Its measured activation is inactive

Briefly, activation measured for CC(CCl)OC(C)CCl (configuration not stated) : inactive

====

- assay.system: Muscarinic acetylcholine receptor M1 (Homo sapiens) (UniProt P11229)
- Sequence (P11229 whole entry, looked up): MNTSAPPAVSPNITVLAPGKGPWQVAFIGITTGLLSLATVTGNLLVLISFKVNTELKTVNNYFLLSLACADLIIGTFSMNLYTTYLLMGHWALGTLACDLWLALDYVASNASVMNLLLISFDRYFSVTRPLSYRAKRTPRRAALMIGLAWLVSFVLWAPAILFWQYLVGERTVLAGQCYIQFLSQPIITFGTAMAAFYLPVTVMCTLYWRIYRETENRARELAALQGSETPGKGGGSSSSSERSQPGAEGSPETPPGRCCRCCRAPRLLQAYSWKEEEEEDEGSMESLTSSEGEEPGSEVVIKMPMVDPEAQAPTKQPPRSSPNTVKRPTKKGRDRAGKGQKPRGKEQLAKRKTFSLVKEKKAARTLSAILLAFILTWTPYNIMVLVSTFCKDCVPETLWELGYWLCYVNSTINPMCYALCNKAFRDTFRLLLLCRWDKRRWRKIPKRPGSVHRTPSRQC
- test.method.notes: Cholinergic receptor muscarinic 1 (CHRM1) small molecule agonists, cell-based qHTS assay (AID 1963589); also: % is scaled to controls: 0 for no effect and ±100 for the full control effect; nearly all actives have a fitted effect of over 35% in size
- measurement.context: CHRM1-CHO cells, agonist mode, calcium flux fluorescence; series mostly up to 76.8 µM
Calls of active or inactive are those of the source. Calls follow the shape of the full dose curve.
observed.property: activation

The examples below pair each entry with its known result.
[[record]]
compound = "OC1(c2ccc(Cl)c(C(F)(F)F)c2)CCN(CCCC(c2ccc(F)cc2)c2ccc(F)cc2)CC1"
observed_property = "activation"
result = "inactive"

[[record]]
compound = "CCc1ccc(CC)cc1"
observed_property = "activation"
result = "inactive"

[[record]]
compound = "CCCCC(=O)O[C@]1(C(=O)CO)CC[C@H]2[C@@H]3CCC4=CC(=O)CC[C@]4(C)[C@H]3[C@@H](O)C[C@@]21C"
observed_property = "activation"
result = "inactive"

[[record]]
compound = "Cc1ccccc1C(=O)O"
observed_property = "activation"
result = "inactive"

[[record]]
compound = "C[N+]1(CC2COC(c3ccccc3)(c3ccccc3)O2)CCCCC1 (stereo unspecified)"
observed_property = "activation"
result = "10.6% [at 15.8 µM] (inactive)"


Now look at this one.
Summary line: CC(=O)CC(C)C , Muscarinic acetylcholine receptor M1 (Homo sapiens) (UniProt P11229), reported activation = inactive

====

- test.method.notes: Nuclear factor erythroid 2-related factor 2/antioxidant responsive element (Nrf2/ARE) small molecule agonists: qHTS cell viability counter screen in human keratinocytes (AID 1919968); also: nearly all actives have a fitted effect of over 55% in size
- measurement.context: KeratinoSens HaCaT ARE cells viability, CellTiter-Fluor, 24 h; series mostly up to 92.4 µM
Records with an inconclusive call do not appear. Activity calls are given as the source filed them. Calls follow the shape of the dose curve; as a rule, active = well fitted cell-killing curve with a large enough effect in the repeat runs; inconclusive = weak or mixed curves, or effect the other way; inactive = flat fitted curve, though single readings scatter.
Choose the fitting class; nothing outside active, inactive is accepted.

// known answers, use as guide
[[record]]
compound = "C=CC(=O)OCC(O)COc1ccccc1 (centres undefined)"
answer_label = "active"

[[record]]
compound = "CC(=O)Nc1ccc(OCC(O)CNC(C)C)cc1 (centres undefined)"
answer_label = "inactive"

[[record]]
compound = "Cc1c[nH]c2ccccc12"
answer_label = "inactive"


**Query** Hi, sorry to bother you, what did the test record for Cc1c(Cl)cccc1[N+](=O)[O-] ?
**Result** inactive

**Query** Per the assay record, what outcome was assigned to Clc1cc(Cl)c(Cl)nc1Cl ?
**Result** inactive

**Query** Please indicate how the test categorized CN1CCN(c2c(F)cc3c(=O)c(C(=O)O)cn4c3c2SCC4)CC1 .
**Result** inactive

====

- test.method.notes: p53 small molecule agonists, cell-based qHTS assay with human liver microsomes (AID 1963577);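 also: p53 response element beta-lactamase reporter cells with liver microsomes plus NADPH; % is scaled to controls: 0 for no effect and ±100 for the full control effect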
- measurement.context: HCT-116 p53RE-bla with human liver microsomes, ratio, 16 h; series mostly up to 66 µM
Records with an inconclusive call do not appear. Activity calls are given as the source filed them. Calls follow the shape of the full dose curve.
observed.property: activation

For orientation, consider the following solved cases.
[[record]]
compound = "C=C(C)C1CCC(C)CC1O (stereo unspecified)"
observed_property = "activation"
result = "inactive"

[[record]]
compound = "FC(F)(F)C(F)(F)C(F)(F)C(F)(F)C(F)(F)C(F)(F)C(F)(F)C(F)(F)C(F)(F)C(F)(F)F"
observed_property = "activation"
result = "0.0412% [at 5.99 µM] (inactive)"

[[record]]
compound = "Cc1cc(C)n(CO)n1"
observed_property = "activation"
result = "inactive"

[[record]]
compound = "CC(C)(C)OC(=O)c1ccccc1C(=O)O"
observed_property = "activation"
result = "inactive"

[[record]]
compound = "COc1ccc(OC)c(OC)c1"
observed_property = "activation"
result = "inactive"


Please find the next compound below.
# compound COc1ccc(S(=O)(=O)N2c3ccc(Cl)cc3[C@@](O)(c3ccccc3Cl)[C@H]2C(=O)N2CCC[C@@H]2C(N)=O)cc1OC ; its activation = inactive
